Measurement Target: human PD-1 (human, UniProt Q15116 25-288)
Sequence (Q15116 25-288 limits assumed): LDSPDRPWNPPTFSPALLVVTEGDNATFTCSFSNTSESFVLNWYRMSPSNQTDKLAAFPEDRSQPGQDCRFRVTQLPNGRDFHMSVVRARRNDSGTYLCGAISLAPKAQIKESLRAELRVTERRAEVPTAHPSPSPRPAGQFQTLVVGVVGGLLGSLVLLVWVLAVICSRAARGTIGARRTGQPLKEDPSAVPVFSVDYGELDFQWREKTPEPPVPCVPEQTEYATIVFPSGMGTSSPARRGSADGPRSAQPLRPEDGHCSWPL
Method: cell-based or functional assay
Overview of reported M07e-hPD-1 cell proliferation ratio (%) at 10 nM across a group of binders:
Assay Readout: M07e-hPD-1 cell proliferation ratio (%) at 10 nM

# Binder, Unit Tag, Reported Value
data = [
    ("A-N88D (Fc fusion, also called PD-1-IL-2v (N88D); not shown: IgG1 hinge (C220S) + Fc Knob chain (L234A, L235A, S354C, T366W, EU); D356/L358 or E356/M358 ver; IgG1 hinge (C220S) + Fc Hole chain (L234A, L235A, Y349C, T366S, L368A, Y407V; may have H435R, Y436F; EU)) chain (part 1 of 2): EVQLVESGGGLVQPGGSLRLSCAASGLTFSDYSMSWYRQAPGKGRELVAIISGSGVITHYVDSVKGRFTISRDNAKNTLYLQMRSLRAEDTAVYYCRAVSDWEDYWGQGTQVTVSS chain (part 2 of 2): GGGGSGGGGSGGGGSAPASSSTKKTQLQLEHLLLDLQMILQGISNYKNPKLTRMLTAKFYMPKKATELKHLQCLEEELKPLEEVLQGAQSKNFHLRPRDLISDINVIVLELKGSETTFMCEYADETATIVEFLNRWITFAQSIISTLT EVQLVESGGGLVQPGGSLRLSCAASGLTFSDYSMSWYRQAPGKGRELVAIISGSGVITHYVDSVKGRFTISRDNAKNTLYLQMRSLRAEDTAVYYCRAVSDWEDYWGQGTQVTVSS", "%", 35.5),
    ("A-N88D-M27 (Fc fusion, not shown: IgG1 hinge (C220S) + Fc Knob chain as in A-N88D; IgG1 hinge (C220S) + Fc Hole chain as in A-N88D) chain (part 1 of 2): EVQLVESGGGLVQPGGSLRLSCAASGLTFSSYSMSWYRQAPGKGRELVAIISGSGGITHYVDSVKGRFTISRDNAKNTLYLQMRSLRAEDTAVYYCRAVSDWQDYWGQGTQVTVSS chain (part 2 of 2): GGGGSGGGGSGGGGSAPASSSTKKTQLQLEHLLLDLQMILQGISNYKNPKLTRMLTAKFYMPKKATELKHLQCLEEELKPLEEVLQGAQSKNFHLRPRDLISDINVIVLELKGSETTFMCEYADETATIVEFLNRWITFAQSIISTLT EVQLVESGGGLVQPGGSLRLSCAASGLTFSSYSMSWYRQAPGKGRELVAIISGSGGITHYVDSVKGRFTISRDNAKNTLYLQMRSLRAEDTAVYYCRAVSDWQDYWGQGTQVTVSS", "%", 31.9),
    ("A-N88D-M26 (Fc fusion, not shown: IgG1 hinge (C220S) + Fc Knob chain as in A-N88D; IgG1 hinge (C220S) + Fc Hole chain as in A-N88D) chain (part 1 of 2): EVQLVESGGGLVQPGGSLRLSCAASGLTFSSYSMSWYRQAPGKGRELVAIISGSGGITHYVDSVKGRFTISRDNAKNTLYLQMRSLRAEDTAVYYCRAVSDWEDYWGQGTQVTVSS chain (part 2 of 2): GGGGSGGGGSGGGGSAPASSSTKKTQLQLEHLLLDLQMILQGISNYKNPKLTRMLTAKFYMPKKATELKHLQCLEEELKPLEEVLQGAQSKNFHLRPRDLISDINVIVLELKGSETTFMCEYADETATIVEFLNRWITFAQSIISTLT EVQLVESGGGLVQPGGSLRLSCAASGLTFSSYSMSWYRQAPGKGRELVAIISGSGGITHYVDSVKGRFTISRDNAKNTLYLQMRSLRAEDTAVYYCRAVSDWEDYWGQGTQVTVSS", "%", 37),
    ("A-N88D-M15 (Fc fusion, not shown: IgG1 hinge (C220S) + Fc Knob chain as in A-N88D; IgG1 hinge (C220S) + Fc Hole chain as in A-N88D) chain (part 1 of 2): EVQLVESGGGLVQPGGSLRLSCAASGLTFSDYSMSWYRQAPGKGRELVAIISGSGGITHYVDSVKGRFTISRDNAKNTLYLQMRSLRAEDTAVYYCRAVSDWEDYWGQGTQVTVSS chain (part 2 of 2): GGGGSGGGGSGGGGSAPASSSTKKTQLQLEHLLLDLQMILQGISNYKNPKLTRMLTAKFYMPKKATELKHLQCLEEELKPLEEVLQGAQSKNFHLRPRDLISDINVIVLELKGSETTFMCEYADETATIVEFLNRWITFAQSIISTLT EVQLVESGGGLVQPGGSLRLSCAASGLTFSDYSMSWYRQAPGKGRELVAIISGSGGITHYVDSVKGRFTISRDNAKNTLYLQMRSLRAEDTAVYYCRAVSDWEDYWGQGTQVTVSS", "%", 41.6),
]

This collection of values is drawn from patent EP4477673A1.
